# Assay procedure: Apparent permeability of the compound across apical to basolateral side in human Caco-2 cells at pH 6.5
# Format: ADME, cell-based
# Particulars: Caco-2, pH 6.5
Property name: Papp A→B (×10⁻⁶ cm/s)
Express the result in ×10⁻⁶ cm/s but write the number alone.

Task item: GET /values?readout=Papp A→B&item= `Cc1nnc(-c2nc(C)n3ccc(Nc4nccc(-c5cc(CN(C)C)n(C)n5)n4)cc23)o1`
Reply: 6.5

---

Provide the reported microsomal CLint of each item.
# Assay procedure: Metabolic stability in human liver microsomes assessed as intrinsic clearance
# Assay type: ADME, Microsome
# Particulars: read-out: CLH
Only the number, expressed in µL/min/mg, is required.

Task item: Which microsomal CLint reading was recorded for the molecule `CNC(=O)c1nc(C)n2ccc(Nc3nccc(-n4cc([C@@H]5C[C@H](O)CN5C)cn4)n3)cc12` ?
Reply: 110

Task item: Look up microsomal CLint: `Cc1nnc(-c2nc(C)n3ccc(Nc4nccc(-c5cc(CN(C)C)n(C)n5)n4)cc23)o1`
Reply: 40

Task item: I am curious: what microsomal CLint value has been reported for `CNC(=O)c1nc(C)n2ccc(Nc3nccc(-n4cc([C@@H]5C[C@@H](F)CN5C)cn4)n3)cc12` ?
Reply: 278

Task item: Which value of microsomal CLint has been reported for `CNC(=O)c1nn(C)c2ccc(Nc3nccc(-c4cc(CN(C)C)n(C)n4)n3)cc12` in the records?
Reply: 93

Task item: If you can, please state the reported microsomal CLint value of `CN(C)Cc1cnn(-c2ccnc(Nc3ccc4c(c3)c(C(=O)N(C)C)nn4C)n2)c1` .
Reply: 43

Task item: Can you share its microsomal CLint? I mean this molecule: `CNC(=O)c1nn(C)c2c(C)cc(Nc3nccc(-c4cc(CN(C)C)n(C)n4)n3)cc12`
Reply: 106

Task item: Tell me the measured microsomal CLint of `CNC(=O)c1nn(C)c2c(C)cc(Nc3nccc(-n4cc(CN(C)C)cn4)n3)cc12` , please.
Reply: 32

Task item: Requested read-out: microsomal CLint. Entry: `CNC(=O)c1nn(C)c2ccc(Nc3nccc(-n4cc(CN5CC(O)C5)c(C)n4)n3)cc12`
Reply: 78

Task item: Find the recorded microsomal CLint belonging to `CNC(=O)c1nn(C)c2ccc(Nc3nccc(-n4cc(CN(C)C)c(OC)n4)n3)cc12` and report it.
Reply: 103

Task item: # input molecule: `CNC(=O)c1nn(C)c2ccc(Nc3nccc(-n4cc(CN(C)C)cn4)n3)cc12` ; wanted: its microsomal CLint
Reply: 52

Task item: Recorded microsomal CLint for `Cc1nn(-c2ccnc(Nc3ccc4c(c3)c(Cl)c(C)n4C)n2)cc1CN1CC(O)C1` , please?
Reply: 49

Task item: Query (molecule): `CNC(=O)c1nn(C)c2ccc(Nc3nccc(-n4cc(CN(C)C)c(F)n4)n3)cc12` ; field requested: microsomal CLint
Reply: 84

Task item: Record request: microsomal CLint value, item `CNC(=O)c1ncn2ccc(Nc3nccc(-n4cc(CN(C)C)cn4)n3)cc12`
Reply: 9

---

# Assay procedure: Clearance in CD-1 mouse at 0.5 mg/kg, iv or 1 mg/kg, po
# Format: ADME, organism-based
# Particulars: in vivo
Property name: clearance (L/h/kg)
Write it as a number; the unit L/h/kg goes unstated.

Task item: Fill in: clearance of `Cc1nnc(-c2nc(C)n3ccc(Nc4nccc(-c5cc(CN(C)C)n(C)n5)n4)cc23)o1` is ___
Reply: 15.3

---

# Assay procedure: Oral bioavailability in CD-1 mouse at 1 mg/kg
# Format: ADME, organism-based
# Particulars: in vivo
Property name: bioavailability
Remember to quote the unit after the number.

Task item: Need bioavailability, item `Cc1nnc(-c2nc(C)n3ccc(Nc4nccc(-c5cc(CN(C)C)n(C)n5)n4)cc23)o1`
Reply: 7%

---

# Assay procedure: Metabolic stability in rat hepatocyte assessed as intrinsic clearance
# Assay type: ADME, tissue-based
# Particulars: hepatocytes
Property name: log10 of CLH (log10 of the value in µL/min)
// stored as log10 of CLH expressed in µL/min

Task item: I'd like to know its log10 of CLH. The compound in question is `Cc1nnc(-c2nn(C)c3ccc(Nc4nccc(-c5cc(CN(C)C)n(C)n5)n4)cc23)o1`
Reply: 1.15

Task item: # input compound: `COC(=O)c1nn(C)c2c(C)cc(Nc3nccc(-c4cc(CN(C)C)n(C)n4)n3)cc12` ; wanted: its log10 of CLH
Reply: 2.27

Task item: What measured log10 of CLH goes with `CNC(=O)c1nc(C)n2ccc(Nc3nccc(-n4cc([C@@H]5C[C@H](O)CN5C)cn4)n3)cc12` ?
Reply: 1.23

Task item: Which measured log10 of CLH value corresponds to `CNC(=O)c1nn(C)c2ccc(Nc3nccc(-c4cc(CN(C)C)n(C)n4)n3)cc12` ?
Reply: 1.71

Task item: Entry under review: `Cc1nn(-c2ccnc(Nc3ccc4c(c3)c(Cl)c(C)n4C)n2)cc1CN1CC(O)C1` . Reported log10 of CLH?
Reply: 1.82

Task item: Dear colleague, I am looking for the recorded log10 of CLH of the following compound: `CNC(=O)c1nc(C)n2ccc(Nc3nccc(-n4cc([C@@H]5C[C@@H](F)CN5C)cn4)n3)cc12`
Reply: 1.49

Task item: For the compound `CNC(=O)c1nn(C)c2ccc(Nc3nccc(-n4cc(CN(C)C)c(OC)n4)n3)cc12` , what log10 of CLH is on record?
Reply: 1.32

Task item: Could you tell me which log10 of CLH is on file for `CNC(=O)c1nn(C)c2ccc(Nc3nccc(-n4cc(CN5CC(O)C5)c(C)n4)n3)cc12` ?
Reply: 1.28

Task item: # lookup: log10 of CLH of `CNC(=O)c1ncn2ccc(Nc3nccc(-n4cc(CN(C)C)cn4)n3)cc12`
Reply: 1.53

Task item: log10 of CLH lookup needed for `CNC(=O)c1nn(C)c2c(C)cc(Nc3nccc(-n4cc(CN(C)C)cn4)n3)cc12` , thanks.
Reply: 1.69

Task item: For the compound `CN(C)Cc1cnn(-c2ccnc(Nc3ccc4c(c3)c(C(=O)N(C)C)nn4C)n2)c1` , what log10 of CLH is on record?
Reply: 1.52

Task item: Fill in the blank: the reported log10 of CLH of `CNC(=O)c1nn(C)c2ccc(Nc3nccc(-n4cc(CN(C)C)c(F)n4)n3)cc12` is ____.
Reply: 1.53

Task item: Given the entry `CNC(=O)c1nn(C)c2ccc(Nc3nccc(-n4cc(CN(C)C)cn4)n3)cc12` , report its measured log10 of CLH.
Reply: 1.49

Task item: log10 of CLH for `CNC(=O)c1nn(C)c2c(C)cc(Nc3nccc(-c4cc(CN(C)C)n(C)n4)n3)cc12` ?
Reply: 1.81

Task item: Quick check: log10 of CLH of `Cc1nnc(-c2nc(C)n3ccc(Nc4nccc(-c5cc(CN(C)C)n(C)n5)n4)cc23)o1` ?
Reply: 1.08

---

# Assay procedure: Volume of distribution at steady state in CD-1 mouse at 0.5 mg/kg, iv or 1 mg/kg, po
# Format: ADME, organism-based
# Particulars: in vivo, read-out: Vdss
Property name: Vd (L/kg)
Respond with the bare value in L/kg.

Task item: Dear colleague, I am looking for the recorded Vd of the following compound: `Cc1nnc(-c2nc(C)n3ccc(Nc4nccc(-c5cc(CN(C)C)n(C)n5)n4)cc23)o1`
Reply: 8

---

# Assay procedure: Oral bioavailability in Han Wistar rat at 1 mg/kg
# Type: ADME, organism-based
# Particulars: in vivo
Please provide measured bioavailability for the entries that follow.
# number only, unit % dropped from output

Task item: For the compound shown here, `Cc1nnc(-c2nc(C)n3ccc(Nc4nccc(-c5cc(CN(C)C)n(C)n5)n4)cc23)o1` , give the reported bioavailability.
Reply: 5

Task item: Requested read-out: bioavailability. Entry: `CNC(=O)c1nn(C)c2ccc(Nc3nccc(-n4cc(CN(C)C)cn4)n3)cc12`
Reply: 60

---

# Assay procedure: Dissociation constant, pKa of the compound
# Format: physicochemical
Property name: pKa
Write the value as a bare number.

Task item: Data request, read-out pKa, for `CNC(=O)c1nn(C)c2ccc(Nc3nccc(-c4cc(CN(C)C)n(C)n4)n3)cc12`
Reply: 7.3

Task item: For the compound shown here, `CNC(=O)c1nc(C)n2ccc(Nc3nccc(-n4cc([C@@H]5C[C@H](O)CN5C)cn4)n3)cc12` , give the reported pKa.
Reply: 7.9

Task item: Bench note: what pKa did `Cc1nnc(-c2nc(C)n3ccc(Nc4nccc(-c5cc(CN(C)C)n(C)n5)n4)cc23)o1` show?
Reply: 7.2

Task item: // lookup pKa for `CNC(=O)c1nn(C)c2ccc(Nc3nccc(-n4cc(CN5CC(O)C5)c(C)n4)n3)cc12`
Reply: 8.6
